- ASSAY_PROCEDURE: NCI Yeast Anticancer Drug Screen. Data for the mec2-1 strain (AID 157)
- REPORTED_CONDITIONS: S. cerevisiae mec2-1 strain, at 50.0 µM, active compounds read high
Compounds without any hit were thinned out: in the full panel of roughly 79,000, 15% have a hit. Active and inactive are the calls of the source. Rule as the data show it: active = growth inhibition above about 70%; inactive = the rest.
READOUT_KIND: growth inhibition

Take a look at these entries with their results.
- COMPOUND: "CCCCCCCCCCn1cc[nH]c1=S"
  growth inhibition: "99.2% (active)"
- COMPOUND: "NN=C(CC(O)(C(F)(F)Cl)C(F)(F)Cl)CC(O)(C(F)(F)Cl)C(F)(F)Cl"
  growth inhibition: "99.2% (active)"
- COMPOUND: "[N-]=[N+]=Nc1ccc(SN2C(=O)c3ccccc3C2=O)cc1"
  growth inhibition: "88.4% (active)"
- COMPOUND: "O=C(O)Cc1ccc2c3c(cccc13)CC2"
  growth inhibition: "91.8% (active)"
- COMPOUND: "CC(C)c1c(P(=O)(c2ccccc2)c2ccccc2)n(C)c2ccccc12"
  growth inhibition: "89.5% (active)"
- COMPOUND: "CN(Cc1cc(Br)cc(Br)c1O)Cc1c[nH]c2ccccc12"
  growth inhibition: "31.1% (inactive)"

Ask | Value lookup for growth inhibition; key = COc1ccc(N2CCN(CC(O)COc3cc4c(c5c3CCCC5)CCCC4)CC2)cc1 (stereo not given)
Reply | 99% (active)

Ask | For "CCCCCCCCCCCCCC1=NCC(C)(C)N1" , what is its reported growth inhibition?
Reply | 97.3% (active)

Ask | I would be grateful if you could share the reported growth inhibition for "COc1ccccc1NC(=O)C1=C(C)NC(C)=C(C(=O)Nc2ccccc2OC)C1c1ccc(C2C(C(=O)Nc3ccccc3OC)=C(C)NC(C)=C2C(=O)Nc2ccccc2OC)cc1" .
Reply | 81.2% (active)

Ask | Which growth inhibition is listed for CC(C)C1(Cl)CCC2C3(C)CCCC(C)(C(=O)O)C3CC(Cl)C2(Cl)C1Cl (stereo not given) ?
Reply | 74.9% (active)

---

Here the recorded growth inhibition is given for each entry.
- ASSAY_PROCEDURE: NCI Yeast Anticancer Drug Screen. Data for the mec2-1 strain (AID 157)
- REPORTED_CONDITIONS: S. cerevisiae mec2-1 strain, at 50.0 µM, active compounds read high
The panel holds about 79,000 compounds, 15% with a hit somewhere; the sample as a whole holds those more often.
Numbers only here, please. The scale is %.

Ask | What does the data say about its growth inhibition? Entry: "N#CCc1nc(Cl)cc(Cl)n1"
Reply | 81.6

Ask | Entry "C=CCSc1nc2ccc(N3C(=O)C=CC3=O)cc2s1" has what growth inhibition?
Reply | 98

Ask | Requested read-out: growth inhibition. Entry: "CCC(N)(CO)CO"
Reply | 8.3

Ask | Field request: growth inhibition | item: "O/N=C(/C[N+]12CN3CN(CN(C3)C1)C2)c1ccc(I)cc1"
Reply | 84

Ask | Please look up its growth inhibition: OC1CN(C2CCCCC2)CC1C1(O)CCN(C2CCCCC2)C1 (configuration not stated)
Reply | -2.75

Ask | What does the record list as growth inhibition for "O=C1NC(=Nc2ccccc2)C(=Nc2ccccc2)N1c1ccccc1" ?
Reply | 90.8

Ask | Look up growth inhibition: "Cc1cc(Cl)c(C(C)C)cc1O"
Reply | 48.2

Ask | Item under review: "COC(=O)C(=O)/C=C(/O)c1ccc(OC)cc1" . Reported growth inhibition?
Reply | -28.3

Ask | For the compound "CCOC(=O)C(/C=N\C(=S)Nc1c(CC)cccc1C(C)(C)C)=C(/O)c1ccccc1" , what growth inhibition is on record?
Reply | 49

Ask | I'd like to know its growth inhibition. The compound in question is "CC(C)C[C@H](NC(=O)[C@H](Cc1ccccc1)NC(=O)c1cnccn1)B(O)O"
Reply | 30.4

Ask | Record request: growth inhibition value, item "CC1=NOC(=O)/C1=C/C=C/c1ccccc1"
Reply | 86.3

Ask | For "Cc1c(Cl)cc2[nH]c(C(F)(F)F)nc2c1Cl" , what is its reported growth inhibition?
Reply | 75.2

---

Here the recorded growth inhibition is given for each entry.
- ASSAY_PROCEDURE: NCI Yeast Anticancer Drug Screen. Data for the rad50 strain (AID 155);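 also: 0% = growth of vehicle-only cultures of the same strain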
- REPORTED_CONDITIONS: S. cerevisiae rad50 strain growth inhibition; at 5.0 µM (retest, dose inferred, filed as 0.5); active compounds read high
The panel holds about 79,000 compounds, 15% with a hit somewhere; the sample as a whole holds those more often.
Please state the figure in %; there is no need to write the unit.

- COMPOUND: "O=C1CSc2ccccc2-n2cccc21"
  RESULT_UNITS: "%"
  growth inhibition: 5
- COMPOUND: "CCC[CH2][Sn]([CH2]CCC)([O]C(=O)Cc1ccc(F)cc1)[O]C(=O)Cc1ccc(F)cc1"
  RESULT_UNITS: "%"
  growth inhibition: 27
- COMPOUND: "COc1ccc(C2c3cc4c(cc3OC(N3CCOCC3)C2C)OCO4)c(OC)c1 (configuration not stated)"
  RESULT_UNITS: "%"
  growth inhibition: -3
- COMPOUND: "O=C(CCCCN1CCN2c3ccccc3CCC2C1)c1ccccc1 (configuration not stated)"
  RESULT_UNITS: "%"
  growth inhibition: -3
- COMPOUND: "Oc1ccc2c(ccc3ccccc32)c1"
  RESULT_UNITS: "%"
  growth inhibition: 1
- COMPOUND: "N=C(N)SCc1nc(-c2ccc(Cl)cc2)no1"
  RESULT_UNITS: "%"
  growth inhibition: 18

Now let's try a different one.
Ask | What does the data say about its growth inhibition? Entry: "c1ccc(Cn2nnnc2-c2ccccc2)cc1"
Reply | -151

---

- ASSAY_PROCEDURE: NCI Yeast Anticancer Drug Screen. Data for the mec2-1 strain (AID 157)
- REPORTED_CONDITIONS: S. cerevisiae mec2-1 strain, at 50.0 µM, active compounds read high
Compounds without any hit were thinned out: in the full panel of roughly 79,000, 15% have a hit. The source made the active and inactive calls. No stated cut-off is given here; in the data, active means growth inhibition above about 70%; inactive means the rest.
READOUT_KIND: growth inhibition

Known results for compounds:
- COMPOUND: "O=c1[nH]n(CCc2ccccn2)c(=O)c(Cl)c1Cl"
  growth inhibition: "1.95% (inactive)"
- COMPOUND: "Cc1ccc(NCCNCCO)c2c(=O)c3ccccc3sc12"
  growth inhibition: "99.6% (active)"
- COMPOUND: "Cc1cc(C2C(O)C(c3cc(C)on3)C2(C)O)no1 (configuration not stated)"
  growth inhibition: "38.5% (inactive)"

Ask | Which growth inhibition reading was recorded for the compound CC(COC(=O)C(c1ccccc1)C1C=CCCC1)CN1CCCC1 (configuration not stated) ?
Reply | 46.8% (inactive)

Ask | Tell me the measured growth inhibition of "CCCCCN1C(=O)CC(C(=O)OCC)=C1C" , please.
Reply | -17.2% (inactive)

Ask | Which measured growth inhibition value corresponds to "S=C(N/N=C/c1ccccn1)N1CCCCC1" ?
Reply | 92.4% (active)

Ask | Value lookup for growth inhibition; key = "N#CS/C(Cl)=C(/C(Cl)=C(Cl)Cl)[N+](=O)[O-]"
Reply | 70.7% (active)

Ask | Return reported growth inhibition; argument: "S=C(Nc1ccccc1)N(Cc1ccccc1)c1ccccc1"
Reply | 28.6% (inactive)

Ask | Returns the measured growth inhibition for the input compound. Input: OC(CBr)C[n+]1cccc2cc(Cl)ccc21 (configuration not stated)
Reply | -13.4% (inactive)

Ask | Quick one: growth inhibition for "C[N+](C)(CCCCCCOc1c(Br)cc(Br)cc1Br)Cc1ccc(Br)o1" ?
Reply | 99.8% (active)

Ask | growth inhibition lookup needed for "Nc1ccc2c(SCc3ccc([N+](=O)[O-])cc3)c3ccccc3nc2c1" , thanks.
Reply | 87.7% (active)

Ask | Form field: reported growth inhibition of "O=C1CCCC/C1=C\c1ccc(Br)cc1"
Reply | 86.7% (active)

---

- ASSAY_PROCEDURE: NCI Yeast Anticancer Drug Screen. Data for the bub3 strain (AID 167)
- REPORTED_CONDITIONS: S. cerevisiae bub3 mutant strain, at 5.0 µM (retest, dose inferred, filed as 0.5), active compounds read high
About 79,000 compounds went through this panel and 15% of them were active in at least one assay; those are over-represented in the sample as a whole. Activity calls are given as the source filed them. No stated cut-off is given here; in the data, active means growth inhibition above about 70%; inactive means the rest.
READOUT_KIND: growth inhibition

Known growth inhibition results, listed for orientation:
- MOLECULE: "OCC(CCc1c[nH]c2ccccc12)c1c[nH]c2ccccc12 (stereo unspecified)"
  READOUT_KIND: "growth inhibition"
  RESULT: "21% (inactive)"
- MOLECULE: "CC(=O)Sc1ccc(Br)cc1"
  READOUT_KIND: "growth inhibition"
  RESULT: "1% (inactive)"
- MOLECULE: "CC1NC(=O)OC1(C)c1ccccc1 (stereo unspecified)"
  READOUT_KIND: "growth inhibition"
  RESULT: "10% (inactive)"
- MOLECULE: "CCOC(=O)c1c(Cl)nnc(-c2ccccc2)c1-c1ccccc1"
  READOUT_KIND: "growth inhibition"
  RESULT: "13% (inactive)"
- MOLECULE: "O=c1[nH]c(=O)c2cc([N+](=O)[O-])cc([N+](=O)[O-])c2[nH]1"
  READOUT_KIND: "growth inhibition"
  RESULT: "8% (inactive)"

Then there is this molecule:
Ask | State the recorded growth inhibition for this entry: "OCCSC(=S)Nc1ccc(Cl)c(Cl)c1"
Reply | 44% (inactive)
